Test system: Methicillin-Resistant Staphylococcus aureus Isolates
protocol: MIC assay (NCCLS broth dilution), MRSA clinical isolates
Format: cell-based
test.settings: Staphylococcus aureus, MRSA isolate 778, 24FEB06; read-out: Minimal Inhibitory Concentration
The entries below come with measured MIC values attached.
The reply should be a number in µg/mL, with the unit left off.

CN(C)[C@@H]1C(O)=C(C(N)=O)C(=O)[C@@]2(O)C(O)=C3C(=O)c4c(O)cccc4[C@@](C)(O)[C@H]3C[C@@H]12
0.25

Requested field: MIC. Item: CN(C)c1ccc(O)c2c1C[C@H]1C[C@H]3[C@H](N(C)C)C(O)=C(C(N)=O)C(=O)[C@@]3(O)C(O)=C1C2=O 0.06

Same thing, different compound: CC(=O)NC[C@H]1CN(c2ccc(N3CCOCC3)c(F)c2)C(=O)O1 2
